# target.under.test: SaCas9 (Staphylococcus aureus, UniProt J7RUA5)
# Sequence (J7RUA5 1-1053): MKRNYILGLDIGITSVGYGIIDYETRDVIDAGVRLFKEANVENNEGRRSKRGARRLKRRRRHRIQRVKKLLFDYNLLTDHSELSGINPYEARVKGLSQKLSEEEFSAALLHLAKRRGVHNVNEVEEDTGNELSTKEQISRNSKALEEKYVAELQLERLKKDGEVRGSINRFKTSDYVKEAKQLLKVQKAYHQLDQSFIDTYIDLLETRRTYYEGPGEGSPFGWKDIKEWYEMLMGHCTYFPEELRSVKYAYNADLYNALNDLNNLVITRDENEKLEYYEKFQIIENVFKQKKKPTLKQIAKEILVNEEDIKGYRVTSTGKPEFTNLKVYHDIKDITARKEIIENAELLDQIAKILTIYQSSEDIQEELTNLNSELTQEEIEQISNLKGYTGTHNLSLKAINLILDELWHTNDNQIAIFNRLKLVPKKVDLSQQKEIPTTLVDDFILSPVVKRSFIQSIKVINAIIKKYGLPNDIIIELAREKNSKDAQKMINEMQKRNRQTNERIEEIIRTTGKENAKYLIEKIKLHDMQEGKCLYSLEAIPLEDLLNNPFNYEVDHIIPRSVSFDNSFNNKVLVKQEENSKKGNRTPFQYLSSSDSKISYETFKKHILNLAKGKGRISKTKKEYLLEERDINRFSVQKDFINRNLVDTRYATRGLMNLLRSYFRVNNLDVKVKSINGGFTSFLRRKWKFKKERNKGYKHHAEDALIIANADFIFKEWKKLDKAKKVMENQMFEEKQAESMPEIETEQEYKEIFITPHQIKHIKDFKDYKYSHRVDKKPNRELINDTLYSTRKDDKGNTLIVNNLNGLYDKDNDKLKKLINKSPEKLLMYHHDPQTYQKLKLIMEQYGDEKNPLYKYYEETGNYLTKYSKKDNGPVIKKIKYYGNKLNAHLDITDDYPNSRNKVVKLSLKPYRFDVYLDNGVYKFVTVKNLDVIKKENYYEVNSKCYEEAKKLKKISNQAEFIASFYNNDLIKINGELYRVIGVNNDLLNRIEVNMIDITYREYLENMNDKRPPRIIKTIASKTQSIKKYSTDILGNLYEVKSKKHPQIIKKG
# assay.text: Strand displacement assay, SaCas9 primary screen
# Assay type: biochemical
# run.conditions: SaCas9 primary screen, weaker potential hits, replicate 2
Binary call on Normalized Zscore Rep 2: Condition met from 0.2 upward, Condition not met beneath that.

Check this molecule for Normalized Zscore Rep 2 at or above 0.2: COCCCNC(=O)CN1CCN(c2ccc(C(=O)O)cc2NC(=O)c2ccccc2Cl)CC1
Condition met

Is the recorded value of Normalized Zscore Rep 2 equal to or greater than 0.2 for this molecule? Cc1sc2c(c1C)CSC(C(=O)Nc1c(C)n(C)n(-c3ccccc3)c1=O)=C2
Condition not met

Check this molecule for Normalized Zscore Rep 2 at or above 0.2: NC(=O)c1sc(=S)n2c1[nH]c(=O)c1ccc(Cl)cc12
Condition met

Kindly determine if Normalized Zscore Rep 2 recorded for Nc1c(C(=O)N2CCCCC2)sc(=S)n1Cc1ccccc1 is above or exactly 0.2.
Condition met

Continuing:
For this molecule, is measured Normalized Zscore Rep 2 0.2 or higher? Cc1cccc(NC(=O)C2CCCN(c3ccc(-c4ccccc4)nn3)C2)c1 (stereo not shown)
Condition not met

Please indicate if the recorded Normalized Zscore Rep 2 for Cc1cc(C)c(S(=O)(=O)Nc2cnc(N3CCCC3)c(C(=O)O)c2)c(C)c1 meets or exceeds 0.2.
Condition met

----------
# target.under.test: SpCas9 (Streptococcus pyogenes serotype M1)
# assay.text: eGFP disruption assay, SpCas9, U2OS.eGFP.PEST cells
# Type: cell-based
# run.conditions: replicate 2
value.kind: Z socre Rep2
Write no unit; give the number alone.

Given the molecule Cc1nc2ccccc2n1Cc1nnc2n1N=C(N)CS2 , write its reported Z socre Rep2.
−1.41

Write down Z socre Rep2 measured for item O=C(NCC1CCCO1)c1sc(=S)n2c1[nH]c(=O)c1cc3c(cc12)OCO3 (stereo not drawn)
−0.49

// fetch Z socre Rep2 given entry O=C(CCS(=O)(=O)c1ccc(Cl)cc1)Nc1nc(-c2ccncc2)cs1
12.44

Note down Z socre Rep2 recorded for Clc1ccccc1OCc1nn2c(-c3ccccn3)nnc2s1
−1.47

Return Z socre Rep2 (reported value) for this molecule: Cc1nn(-c2ccccc2)c(C)c1CCc1nn2c(-c3cnccn3)nnc2s1
−1.92

---
Look up and state reported Z socre Rep2 for O=C(NCC1CCCO1)c1ccc(Oc2ccnc(-c3ccc(F)cc3)n2)cc1 (stereo not drawn)
0.09

For the molecule CCn1c(CCC(=O)O)nc2cc(S(N)(=O)=O)ccc21 , give its reported Z socre Rep2.
4.01

Answer with the recorded Z socre Rep2 of c1ccc(Cc2nn3c(-c4cccnc4)nnc3s2)cc1 only.
−1.42

Using the record for COc1ccc(C2CNC(=O)C2)cc1OC1CCCC1 (stereo not drawn) , state its measured Z socre Rep2.
−2.66

Read off the recorded Z socre Rep2 for Cc1c(P(=S)(N2CCOCC2)N2CCOCC2)cc(C#N)n1C
1.28

Determine its reported Z socre Rep2: COc1ccc(Cc2nnc3sc(-c4ccccc4OC)nn23)cc1
−2.11

----------
# target.under.test: SaCas9 (Staphylococcus aureus, UniProt J7RUA5)
# Sequence (J7RUA5 1-1053): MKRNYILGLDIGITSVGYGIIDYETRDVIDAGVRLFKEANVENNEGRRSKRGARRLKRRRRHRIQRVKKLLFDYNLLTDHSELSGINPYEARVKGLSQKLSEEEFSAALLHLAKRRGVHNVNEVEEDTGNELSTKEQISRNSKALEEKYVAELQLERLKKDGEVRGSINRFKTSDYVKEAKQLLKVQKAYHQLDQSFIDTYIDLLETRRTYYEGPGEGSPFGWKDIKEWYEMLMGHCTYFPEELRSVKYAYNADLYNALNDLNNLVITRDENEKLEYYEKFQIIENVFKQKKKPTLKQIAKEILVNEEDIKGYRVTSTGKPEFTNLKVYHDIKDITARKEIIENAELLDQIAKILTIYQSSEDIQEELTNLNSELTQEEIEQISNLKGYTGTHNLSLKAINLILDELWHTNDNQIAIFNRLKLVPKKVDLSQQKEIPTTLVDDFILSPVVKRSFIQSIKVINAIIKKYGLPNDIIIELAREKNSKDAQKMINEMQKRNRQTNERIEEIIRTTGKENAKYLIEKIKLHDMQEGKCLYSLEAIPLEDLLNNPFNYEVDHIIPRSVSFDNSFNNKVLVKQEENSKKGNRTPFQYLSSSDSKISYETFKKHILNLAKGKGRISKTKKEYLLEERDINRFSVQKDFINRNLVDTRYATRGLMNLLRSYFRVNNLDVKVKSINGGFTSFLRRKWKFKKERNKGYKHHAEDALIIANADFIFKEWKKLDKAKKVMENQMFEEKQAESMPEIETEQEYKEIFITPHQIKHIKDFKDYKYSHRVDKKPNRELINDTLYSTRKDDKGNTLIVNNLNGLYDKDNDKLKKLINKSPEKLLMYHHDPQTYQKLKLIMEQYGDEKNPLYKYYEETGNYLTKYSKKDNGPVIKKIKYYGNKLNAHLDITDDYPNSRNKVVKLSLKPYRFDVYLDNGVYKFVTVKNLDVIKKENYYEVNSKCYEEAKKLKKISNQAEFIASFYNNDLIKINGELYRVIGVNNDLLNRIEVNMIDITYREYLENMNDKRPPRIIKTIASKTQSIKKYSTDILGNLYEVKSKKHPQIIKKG
# assay.text: Strand displacement assay, SaCas9 primary screen
# Assay type: biochemical
# run.conditions: SaCas9 primary screen, Auto Zscore, replicate 1
value.kind: Auto Zscore Rep 1
Answer field: number only, no words.

Give me measured Auto Zscore Rep 1, please, for this compound: NC(=O)c1sc(=S)n(Cc2ccccc2)c1N [Compound F128-0030]
−0.4371

Please give measured Auto Zscore Rep 1 of the following entry: O=C(O)c1ccc(N2CCN(c3ccccn3)CC2)c(NC(=O)c2ccc(Br)cc2)c1 [Compound F086-0619]
1.213

Check the records and state Auto Zscore Rep 1 for CCN(Cc1ccccc1)c1ccc(NS(=O)(=O)c2cc(C)ccc2C)cc1C(=O)O [Cpd F294-0010]
−0.2001

----------
Reported Normalized Z rep2 by item:
# target.under.test: SpCas9 (Streptococcus pyogenes serotype M1, UniProt Q99ZW2)
# Sequence (Q99ZW2 whole entry): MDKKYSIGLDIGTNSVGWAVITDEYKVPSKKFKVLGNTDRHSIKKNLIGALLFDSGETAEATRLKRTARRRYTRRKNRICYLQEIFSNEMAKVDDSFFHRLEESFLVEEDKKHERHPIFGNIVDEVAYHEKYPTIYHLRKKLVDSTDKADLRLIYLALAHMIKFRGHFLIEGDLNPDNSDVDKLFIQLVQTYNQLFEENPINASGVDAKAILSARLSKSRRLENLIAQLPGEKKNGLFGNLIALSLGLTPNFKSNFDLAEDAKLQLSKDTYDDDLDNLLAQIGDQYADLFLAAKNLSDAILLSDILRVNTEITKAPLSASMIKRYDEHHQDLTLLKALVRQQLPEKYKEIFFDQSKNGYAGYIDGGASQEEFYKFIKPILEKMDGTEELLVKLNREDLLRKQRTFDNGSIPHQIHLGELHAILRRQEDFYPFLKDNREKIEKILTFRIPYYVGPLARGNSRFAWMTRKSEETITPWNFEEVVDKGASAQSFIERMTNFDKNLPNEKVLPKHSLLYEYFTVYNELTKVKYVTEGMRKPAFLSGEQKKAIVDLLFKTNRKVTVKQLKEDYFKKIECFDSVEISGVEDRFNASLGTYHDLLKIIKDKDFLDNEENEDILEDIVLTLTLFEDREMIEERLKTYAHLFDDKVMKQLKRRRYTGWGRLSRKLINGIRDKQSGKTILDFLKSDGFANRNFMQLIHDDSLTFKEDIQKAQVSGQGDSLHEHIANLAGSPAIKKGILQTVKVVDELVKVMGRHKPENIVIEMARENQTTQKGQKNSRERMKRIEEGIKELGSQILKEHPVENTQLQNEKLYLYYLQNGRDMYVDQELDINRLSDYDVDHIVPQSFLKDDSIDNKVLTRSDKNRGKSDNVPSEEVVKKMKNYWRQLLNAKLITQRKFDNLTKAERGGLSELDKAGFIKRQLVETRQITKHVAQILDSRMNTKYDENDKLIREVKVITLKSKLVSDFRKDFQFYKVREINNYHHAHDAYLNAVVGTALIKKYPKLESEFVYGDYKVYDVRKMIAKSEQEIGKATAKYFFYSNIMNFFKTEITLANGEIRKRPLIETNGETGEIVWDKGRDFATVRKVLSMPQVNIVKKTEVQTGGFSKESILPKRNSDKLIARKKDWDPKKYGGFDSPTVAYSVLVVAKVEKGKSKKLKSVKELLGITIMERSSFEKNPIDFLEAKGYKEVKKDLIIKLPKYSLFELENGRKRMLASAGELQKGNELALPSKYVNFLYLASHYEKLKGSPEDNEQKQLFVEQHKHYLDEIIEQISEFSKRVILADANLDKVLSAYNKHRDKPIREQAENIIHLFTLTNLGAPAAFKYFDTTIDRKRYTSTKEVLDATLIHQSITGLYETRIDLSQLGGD
# assay.text: eGFP disruption assay, SpCas9, U2OS.eGFP.PEST cells
# Assay type: cell-based
# run.conditions: replicate 2
Simply state the number, no unit and no words.

The examples below pair each entry with its known result.
Kindly indicate its recorded Normalized Z rep2. Item: NC(=O)c1sc(=S)n2c1[nH]c(=O)c1cc(Cl)ccc12
−0.12

Give the reported Normalized Z rep2 for this molecule. O=C(NCc1ccc(F)cc1)c1ccc(Oc2ccnc(-c3cccc(F)c3)n2)cc1
−0.08

Answer with the recorded Normalized Z rep2 for the molecule listed here: CCCCN(CC)C(=O)C1CCCN(c2ccc(-c3ccccc3C)nn2)C1 (stereo not drawn)
−0.38

Please report the measured Normalized Z rep2 for c1cncc(-c2nnc3sc(Cc4ccc5c(c4)OCCO5)nn23)c1
−0.08

Input CCCN1CCN(c2ccc(C(=O)O)cc2NC(=O)c2ccccc2Cl)CC1 , output reported Normalized Z rep2.
−0.29

Indicate its recorded Normalized Z rep2; the molecule in question is CN(C)S(=O)(=O)Nc1ccc(N2CCC(C(N)=O)(N3CCCCC3)CC2)c(C(=O)O)c1
−0.30

Continuing:
Give recorded Normalized Z rep2. O=C(Nc1nc(-c2ccccc2)c(C(=O)c2ccccc2)s1)c1ccc2c(c1)OCCO2
0.09

Give me measured Normalized Z rep2, please, for this molecule: Brc1cccc(-c2nn3c(-c4cccnc4)nnc3s2)c1
0.08

Consider the molecule Cc1ncc(-c2ccnc(Nc3ccc(S(C)(=O)=O)cc3)n2)n1C(C)C and give its recorded Normalized Z rep2.
−1.71
